Data credit: patent US20230293539A1

# System: GLS1 (Homo sapiens)
# Sequence (O94925 73-669 limits assumed, species assumed): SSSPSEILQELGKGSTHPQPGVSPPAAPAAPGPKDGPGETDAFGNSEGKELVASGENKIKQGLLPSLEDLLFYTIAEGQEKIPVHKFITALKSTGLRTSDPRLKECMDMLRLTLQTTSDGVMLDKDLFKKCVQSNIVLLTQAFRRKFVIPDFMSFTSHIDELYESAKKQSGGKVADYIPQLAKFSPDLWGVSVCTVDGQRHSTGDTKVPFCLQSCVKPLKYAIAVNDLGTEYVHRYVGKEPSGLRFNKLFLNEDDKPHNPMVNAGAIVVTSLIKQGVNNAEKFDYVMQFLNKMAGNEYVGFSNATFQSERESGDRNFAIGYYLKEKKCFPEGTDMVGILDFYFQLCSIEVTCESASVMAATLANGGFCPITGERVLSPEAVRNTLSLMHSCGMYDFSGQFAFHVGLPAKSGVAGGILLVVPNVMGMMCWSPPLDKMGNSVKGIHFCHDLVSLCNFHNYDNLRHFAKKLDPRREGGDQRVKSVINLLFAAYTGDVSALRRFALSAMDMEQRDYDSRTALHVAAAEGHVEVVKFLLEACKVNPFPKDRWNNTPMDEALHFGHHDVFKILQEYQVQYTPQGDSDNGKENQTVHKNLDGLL
# Assay Summary: Selectivity panel (Table 3)
# Type: biochemical
pIC50: −log10 of the molar value.
Value Type: pIC50

Please report the measured pIC50 for Cc1c(F)c(N)cc(C(=O)Nc2cc(-n3cc(C(=O)N4CCN(C)CC4)nn3)c(F)cc2N2C[C@@H](C)N(C)[C@@H](C)C2)c1Cl
< 6.00

###

# Assay Summary: Mouse PK (oral)
# Type: in vivo, C57/B16 mice
# Conditions: C57/B16, 30 mg/kg, 30 mpk, plasma
Value Type: Cmax
Returns: string containing the number followed by the unit.

Chem Smiles | Recorded Value
Cc1c(F)c(N)cc(C(=O)Nc2cc(-n3cc(C(=O)N4CCN(C)CC4)nn3)c(F)cc2N2C[C@@H](C)N(C)[C@@H](C)C2)c1Cl | 1.28 µM
CCN(CC)C(=O)c1cn(-c2cc(NC(=O)c3cc(N)c(F)c(C)c3Cl)c(N3C[C@@H](C)N(C)[C@@H](C)C3)cc2F)nn1 | 4.53 µM
C[C@H]1CN(c2cc(F)c(-c3cnc(N4CCOCC4)nc3)cc2Nc2ncnc(Cl)c2N)CCN1C | 5.47 µM

Please report the measured Cmax for C[C@@H]1CN(c2ncc(-c3cc(Nc4ncnc(Cl)c4N)c(N4CCN(C)[C@@H](C)C4)cc3F)cn2)C[C@H](C)O1
3.43 µM

###

# Assay Summary: PK profile of HBI-2375 in plasma and brain in C57BL/6J mice
# Format: in vivo
# Conditions: mouse; C57BL/6J mice, single PO 40 mg/kg, brain, female
Value Type: Cmax (ng/g)
One number for each entry, in ng/g.

Please report the measured Cmax for Cc1c(F)c(N)cc(C(=O)Nc2cc(-n3cc(C(=O)N4CCN(C)CC4)nn3)c(F)cc2N2C[C@@H](C)N(C)[C@@H](C)C2)c1Cl
192

###

# System: WIP 1 (Homo sapiens)
# Sequence (O15297 whole entry, species assumed): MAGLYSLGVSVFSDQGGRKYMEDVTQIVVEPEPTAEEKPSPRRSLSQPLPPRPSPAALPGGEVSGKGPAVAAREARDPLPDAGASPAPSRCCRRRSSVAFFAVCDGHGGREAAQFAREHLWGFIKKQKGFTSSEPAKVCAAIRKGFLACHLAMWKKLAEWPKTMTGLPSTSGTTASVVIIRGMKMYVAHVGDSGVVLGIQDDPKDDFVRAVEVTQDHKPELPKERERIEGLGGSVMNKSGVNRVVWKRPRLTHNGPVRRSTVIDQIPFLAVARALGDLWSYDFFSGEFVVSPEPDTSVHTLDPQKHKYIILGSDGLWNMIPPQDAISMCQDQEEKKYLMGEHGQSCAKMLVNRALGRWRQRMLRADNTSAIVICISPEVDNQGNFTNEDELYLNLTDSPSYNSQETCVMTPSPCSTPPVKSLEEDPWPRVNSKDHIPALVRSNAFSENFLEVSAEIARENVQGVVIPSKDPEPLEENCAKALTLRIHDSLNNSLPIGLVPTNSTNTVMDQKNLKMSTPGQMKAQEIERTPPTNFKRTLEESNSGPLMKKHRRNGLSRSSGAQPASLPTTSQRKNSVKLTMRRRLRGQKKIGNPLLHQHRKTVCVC
Value Type: IC50

Please report the measured IC50 for Cc1c(F)c(N)cc(C(=O)Nc2cc(-n3cc(C(=O)N4CCN(C)CC4)nn3)c(F)cc2N2C[C@@H](C)N(C)[C@@H](C)C2)c1Cl [HYBI-084]
> 1000 nM

###

# Assay Summary: Compound formulation stability assay
# Type: physicochemical
# Conditions: 10 mg/mL in 10% DMSO/10% solutol HS 15/80% water, 2-8° C., Day 4
Consider the following compounds; for each one, report its Accuracy % (Day 4).
Give bare numbers, in %.

Worked cases, answers included:
Chem Smiles | Value Type | Recorded Value
Cc1c(F)c(N)cc(C(=O)Nc2cc(-n3cc(C(=O)N4CCN(C)CC4)nn3)c(F)cc2N2C[C@@H](C)N(C)[C@@H](C)C2)c1Cl | Accuracy % (Day 4) | 92.9
C[C@@H]1CN(c2ncc(-c3cc(Nc4ncnc(Cl)c4N)c(N4CCN(C)[C@@H](C)C4)cc3F)cn2)C[C@H](C)O1 | Accuracy % (Day 4) | 92.2
CCN(CC)C(=O)c1cn(-c2cc(NC(=O)c3cc(N)c(F)c(C)c3Cl)c(N3C[C@@H](C)N(C)[C@@H](C)C3)cc2F)nn1 | Accuracy % (Day 4) | 99.3

# ---- query compound ----
Please report the measured Accuracy % (Day 4) for C[C@H]1CN(c2cc(F)c(-c3cnc(N4CCOCC4)nc3)cc2Nc2ncnc(Cl)c2N)CCN1C
92.0
